Molecular target: Human S1P3 receptor (Homo sapiens, UniProt Q99500)
Sequence (Q99500 whole entry): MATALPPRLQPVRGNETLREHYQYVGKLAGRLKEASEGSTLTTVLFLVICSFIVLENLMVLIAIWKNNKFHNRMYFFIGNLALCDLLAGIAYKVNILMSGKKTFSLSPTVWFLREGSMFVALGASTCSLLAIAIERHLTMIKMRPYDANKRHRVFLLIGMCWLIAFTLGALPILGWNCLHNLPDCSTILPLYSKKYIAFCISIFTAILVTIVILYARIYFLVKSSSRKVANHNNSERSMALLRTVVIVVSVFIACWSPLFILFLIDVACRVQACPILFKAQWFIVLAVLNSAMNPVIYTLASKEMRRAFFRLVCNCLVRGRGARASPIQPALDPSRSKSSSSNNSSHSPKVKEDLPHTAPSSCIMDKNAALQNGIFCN
Experiment: Suppression of S1P-induced cellular calcium mobilization in human S1P3 receptor-expression CHO cells (Schild plot)
Details: Schild plot of S1P EC50 shift; test compound 125 nM, 1.25 μM, 12.5 μM; hS1P3 CHO cells; read-out: S1P3 dissociation constant Kd value
pKd: −log10 of the molar value.
Experimental readout: pKd

Solved cases (3 shown):
* C=CC[C@](N)(CCc1ccc(Sc2cc(C(F)(F)F)ccc2O)cc1Cl)COP(=O)(O)O | > 9.00
* CCC[C@](N)(CCc1ccc(Sc2cc(OCc3ccccc3)ccc2O)cc1Cl)COP(=O)(O)O | 8.00 to 9.00
* C[C@](N)(CCc1ccc(Sc2cc(C(F)(F)F)ccc2O)cc1Cl)CCP(=O)(O)O | 6.00 to 7.00

Now look at this one.
Ask: Any idea what pKd was measured for CC(C)c1ccc(O)c(Sc2ccc(CC[C@](C)(N)COP(=O)(O)O)c(Cl)c2)c1 ?
Reply: 8.00 to 9.00

====

Molecular target: S1P1 receptor (Homo sapiens, UniProt P21453)
Sequence (P21453 whole entry): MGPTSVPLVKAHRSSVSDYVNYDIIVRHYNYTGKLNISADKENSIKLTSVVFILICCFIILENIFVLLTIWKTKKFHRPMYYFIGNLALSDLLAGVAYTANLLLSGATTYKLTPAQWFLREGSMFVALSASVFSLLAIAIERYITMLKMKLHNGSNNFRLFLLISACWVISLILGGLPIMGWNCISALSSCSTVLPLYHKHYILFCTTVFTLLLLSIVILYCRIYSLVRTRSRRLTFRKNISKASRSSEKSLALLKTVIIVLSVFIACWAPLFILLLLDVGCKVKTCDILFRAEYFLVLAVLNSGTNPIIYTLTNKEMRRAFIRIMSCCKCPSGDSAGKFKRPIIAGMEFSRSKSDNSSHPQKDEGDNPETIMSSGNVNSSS
Assay: Intracellular calcium mobilization derivative (agonist) test in human S1P1 receptor-expression CHO cells
Details: agonist mode, read-out: EC50 value, intracellular calcium mobilization derivative action
Experimental readout: EC50

* C[C@](N)(CCc1ccc(Sc2cc(C#N)ccc2O)cc1Cl)COP(=O)(O)O | > 10 µM

Ask: # value lookup — system S1P1 receptor (Homo sapiens, UniProt P21453), readout EC50, item CCC[C@](N)(CCc1ccc(Sc2cc(C(F)(F)F)ccc2O)cc1Cl)COP(=O)(O)O
Reply: > 10 µM

====

Target: Human S1P3 receptor (Homo sapiens, UniProt Q99500)
Assay: Suppression of S1P-induced cellular calcium mobilization in human S1P3 receptor-expression CHO cells (Schild plot)
Details: Schild plot of S1P EC50 shift; test compound 125 nM, 1.25 μM, 12.5 μM; hS1P3 CHO cells; read-out: S1P3 dissociation constant Kd value
pKd: −log10 of the molar value.
Can you tell me pKd for the items I'm about to list?

Batch: pKd for all items listed.
1. CC(=O)c1ccc(O)c(Sc2ccc(CC[C@](C)(N)COP(=O)(O)O)c(Cl)c2)c1
2. CCc1ccc(O)c(Sc2ccc(CC[C@](C)(N)COP(=O)(O)O)c(Cl)c2)c1

Reply:
1. 7.00 to 8.00
2. 7.00 to 8.00

Dear reader, for each entry below, please note its pKd.
1. CC(C)Oc1ccc(O)c(Sc2ccc(CC[C@](C)(N)COP(=O)(O)O)c(Cl)c2)c1
2. C[C@](N)(CCc1ccc(Sc2cc(C#N)ccc2O)cc1Cl)COP(=O)(O)O
3. CCCc1ccc(O)c(Sc2ccc(CC[C@@](N)(CCC)COP(=O)(O)O)c(Cl)c2)c1
4. COc1ccc(O)c(Sc2ccc(CC[C@](C)(N)COP(=O)(O)O)c(Cl)c2)c1

Reply:
1. 7.00 to 8.00
2. 6.00 to 7.00
3. 8.00 to 9.00
4. 6.00 to 7.00

Give one value of pKd per listed compound.
1. CCC[C@](N)(CCc1ccc(Sc2cc(C3CC3)ccc2O)cc1Cl)COP(=O)(O)O
2. C[C@](N)(CCc1ccc(Sc2cc(C(F)(F)F)ccc2O)cc1Cl)COP(=O)(O)O
3. C[C@](N)(CCc1ccc(Sc2cc(C3CC3)ccc2O)cc1Cl)COP(=O)(O)O
4. CCC[C@](N)(CCc1ccc(Sc2cc(C(F)(F)F)ccc2O)cc1Cl)COP(=O)(O)O
5. CCC[C@](N)(CCc1ccc(Sc2cc(C(C)C)ccc2O)cc1Cl)COP(=O)(O)O
6. Cc1ccc(O)c(Sc2ccc(CC[C@](C)(N)COP(=O)(O)O)c(Cl)c2)c1
7. CCOc1ccc(O)c(Sc2ccc(CC[C@](C)(N)COP(=O)(O)O)c(Cl)c2)c1

Reply:
["8.00 to 9.00", "8.00 to 9.00", "8.00 to 9.00", "> 9.00", "8.00 to 9.00", "7.00 to 8.00", "7.00 to 8.00"]

Hello, I would appreciate it if you could give pKd for each entry below.
1. C[C@](N)(CCc1ccc(Sc2ccccc2O)cc1Cl)COP(=O)(O)O
2. CCCc1ccc(O)c(Sc2ccc(CC[C@](C)(N)COP(=O)(O)O)c(Cl)c2)c1

Reply:
7.00 to 8.00
7.00 to 8.00

====

Biological target: Human S1P3 receptor (Homo sapiens)
Assay: Suppression of S1P-induced cellular calcium mobilization in human S1P3 receptor-expression CHO cells (Schild plot)
Conditions: Schild plot of S1P EC50 shift; test compound 125 nM, 1.25 μM, 12.5 μM; hS1P3 CHO cells; read-out: S1P3 dissociation constant Kd value
Experimental readout: Kd

These recorded examples may help you get a feel for the data.
• C[C@](N)(CCc1ccc(Sc2cc(Cl)ccc2O)cc1Cl)COP(=O)(O)O = 10 to 100 nM
• C[C@](N)(CCc1ccc(Sc2cc(OCc3ccccc3)ccc2O)cc1Cl)COP(=O)(O)O = 1 to 10 nM
• CCC[C@](N)(CCc1ccc(Sc2cc(-c3ccccc3)ccc2O)cc1Cl)COP(=O)(O)O = < 1 nM

Here's the next entry for you.
Ask: Data request, read-out Kd, for CCC[C@](N)(CCc1ccc(Sc2cc(C(C)(C)C)ccc2O)cc1Cl)COP(=O)(O)O
Reply: < 1 nM

Each recorded value in this set is attributed to patent US8569270B2.
